Assay: qHTS of pediatric cancer cell lines to identify multiple opportunities for drug repurposing: Primary screen for Rh41 cells (AID 1347108); also: nearly all actives have a fitted effect of over 70% in size
Conditions: Rh41 rhabdomyosarcoma viability, CellTiter-Glo luminescence, 48 h; series mostly up to 46 µM
Records with an inconclusive call do not appear. The source made the active and inactive calls. Calls follow the shape of the dose curve; as a rule, active = well fitted cell-killing curve with a large enough effect; inconclusive = small, poorly fitted or top-dose-only effect; inactive = no such curve, though single readings can be large or run the other way.
Allowed answers: active, inactive

Just curious, what result did O=S(=O)(O)C(F)(F)C(F)(F)C(F)(F)C(F)(F)C(F)(F)C(F)(F)C(F)(F)C(F)(F)F get here?
inactive

Just curious, what result did O=S(=O)(F)Cc1ccccc1 get here?
inactive

Just curious, what result did Cc1c(C(=O)c2cccc3ccccc23)c2cccc3c2n1[C@H](CN1CCOCC1)CO3 get here?
active

Just curious, what result did C1=C2CCCN[C@H]2[C@@H]2C[C@H]1[C@@H]1CCCCN1C2 get here?
inactive

###

Biological target: Cytochrome P450 2C9 (Homo sapiens) (UniProt P11712)
Sequence (P11712 whole entry, looked up): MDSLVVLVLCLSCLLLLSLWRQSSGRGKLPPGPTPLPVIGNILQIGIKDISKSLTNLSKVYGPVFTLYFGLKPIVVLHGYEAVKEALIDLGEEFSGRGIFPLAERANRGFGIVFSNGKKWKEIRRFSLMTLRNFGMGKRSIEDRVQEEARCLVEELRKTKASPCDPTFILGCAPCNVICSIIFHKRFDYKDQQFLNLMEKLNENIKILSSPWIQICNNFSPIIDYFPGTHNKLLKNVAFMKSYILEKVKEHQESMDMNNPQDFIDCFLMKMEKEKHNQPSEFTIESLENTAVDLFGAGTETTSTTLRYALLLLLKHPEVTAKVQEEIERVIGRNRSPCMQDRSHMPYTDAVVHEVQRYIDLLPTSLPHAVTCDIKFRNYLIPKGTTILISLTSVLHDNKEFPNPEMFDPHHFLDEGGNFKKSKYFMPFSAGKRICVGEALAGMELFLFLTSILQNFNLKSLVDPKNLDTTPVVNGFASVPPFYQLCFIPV
Experiment: Cytochrome P450 family 2 subfamily C member 9 (CYP2C9) small molecule antagonists: luciferase biochemical (cell-free) qHTS assay (AID 1645842); also: nearly all actives have a fitted effect of over 55% in size
Details: P450-Glo CYP2C9 enzyme assay, luciferin luminescence; series mostly up to 57.4 µM
Inconclusive results are not listed. Activity calls are given as the source filed them. Calls come from the whole dose curve; as a rule, active = well fitted inhibition curve with a large enough effect in the repeat runs; inconclusive = weak or mixed curves; inactive = no such curve, though single readings can be large or run the other way.
Allowed answers: class 1 (active), class 0 (inactive)

Just curious, what result did c1cc2ccc3cccc4ccc(c1)c2c34 get here?
class 0

Just curious, what result did CC1=C(O)C(=O)C=C2C1=CC=C1[C@@]2(C)CC[C@@]2(C)[C@@H]3C[C@](C)(C(=O)O)CC[C@]3(C)CC[C@]12C get here?
class 1

Just curious, what result did Cc1cc(O)ccc1Cl get here?
class 0

Just curious, what result did CC1=NN=C(c2ccc(N)cc2)c2cc3c(cc2C1)OCO3 get here?
class 1

Just curious, what result did COc1ccc(C(c2ccc(OC)cc2)C(Cl)(Cl)Cl)cc1 get here?
class 1

Just curious, what result did O=[N+]([O-])c1c2ccccc2cc2ccccc12 get here?
class 1

Just curious, what result did Nc1ccc([N+](=O)[O-])cc1 get here?
class 0

Just curious, what result did CCC(=O)O[C@@H]1C=C2CCC3C(CCC4(C)C3CC[C@@H]4OC(=O)CC)C2CC1 (stereo partly drawn) get here?
class 1

Just curious, what result did COc1nn(CSP(=S)(OC)OC)c(=O)s1 get here?
class 1

Just curious, what result did O=C(Nc1ccncc1)C(=O)c1cn(Cc2ccc(Cl)cc2)c2ccccc12 get here?
class 1

Just curious, what result did CC(O)CN1CCN(CC(=O)[O-])CCN(CC(=O)[O-])CCN(CC(=O)[O-])CC1.[Gd+3] (stereo not drawn) get here?
class 0

Just curious, what result did CC[N+]1(CCOC(=O)C(O)(c2ccccc2)c2ccccc2)CCCCC1 get here?
class 0

Just curious, what result did O=S(=O)(O)C(F)(F)C(F)(F)C(F)(F)C(F)(F)C(F)(F)C(F)(F)C(F)(F)C(F)(F)F get here?
class 1

Just curious, what result did COCC1(CO)C(=O)C2CCN1CC2 (stereo not drawn) get here?
class 0

Just curious, what result did CC(C)NCC(O)c1ccc([N+](=O)[O-])cc1 (stereo not drawn) get here?
class 0

Just curious, what result did CN[C@@H](C)[C@H](O)c1ccccc1 get here?
class 0

Just curious, what result did CCCN(CCC)c1c([N+](=O)[O-])cc(S(N)(=O)=O)cc1[N+](=O)[O-] get here?
class 1

Just curious, what result did CCCCOC(=O)c1ccccc1C(=O)OCc1ccccc1 get here?
class 1

Just curious, what result did CC(Cc1ccc(O)cc1)NCC(O)c1cc(O)cc(O)c1 (stereo not drawn) get here?
class 0

Just curious, what result did CCCCc1ccc(C(=O)O)nc1 get here?
class 0

Just curious, what result did O=[N+]([O-])c1c(Cl)c(Cl)cc(Cl)c1Cl get here?
class 0

Just curious, what result did CC(=O)N(C)c1cccc(-c2ccnc3c(C(=O)c4cccs4)cnn23)c1 get here?
class 0

Just curious, what result did CCOC(=O)Nc1ccc(NCc2ccc(F)cc2)cc1N get here?
class 1

All figures here come from PubChem BioAssay (NCATS).
